# Tested Target: LATS1 (Homo sapiens, UniProt O95835)
# Sequence (O95835 whole entry): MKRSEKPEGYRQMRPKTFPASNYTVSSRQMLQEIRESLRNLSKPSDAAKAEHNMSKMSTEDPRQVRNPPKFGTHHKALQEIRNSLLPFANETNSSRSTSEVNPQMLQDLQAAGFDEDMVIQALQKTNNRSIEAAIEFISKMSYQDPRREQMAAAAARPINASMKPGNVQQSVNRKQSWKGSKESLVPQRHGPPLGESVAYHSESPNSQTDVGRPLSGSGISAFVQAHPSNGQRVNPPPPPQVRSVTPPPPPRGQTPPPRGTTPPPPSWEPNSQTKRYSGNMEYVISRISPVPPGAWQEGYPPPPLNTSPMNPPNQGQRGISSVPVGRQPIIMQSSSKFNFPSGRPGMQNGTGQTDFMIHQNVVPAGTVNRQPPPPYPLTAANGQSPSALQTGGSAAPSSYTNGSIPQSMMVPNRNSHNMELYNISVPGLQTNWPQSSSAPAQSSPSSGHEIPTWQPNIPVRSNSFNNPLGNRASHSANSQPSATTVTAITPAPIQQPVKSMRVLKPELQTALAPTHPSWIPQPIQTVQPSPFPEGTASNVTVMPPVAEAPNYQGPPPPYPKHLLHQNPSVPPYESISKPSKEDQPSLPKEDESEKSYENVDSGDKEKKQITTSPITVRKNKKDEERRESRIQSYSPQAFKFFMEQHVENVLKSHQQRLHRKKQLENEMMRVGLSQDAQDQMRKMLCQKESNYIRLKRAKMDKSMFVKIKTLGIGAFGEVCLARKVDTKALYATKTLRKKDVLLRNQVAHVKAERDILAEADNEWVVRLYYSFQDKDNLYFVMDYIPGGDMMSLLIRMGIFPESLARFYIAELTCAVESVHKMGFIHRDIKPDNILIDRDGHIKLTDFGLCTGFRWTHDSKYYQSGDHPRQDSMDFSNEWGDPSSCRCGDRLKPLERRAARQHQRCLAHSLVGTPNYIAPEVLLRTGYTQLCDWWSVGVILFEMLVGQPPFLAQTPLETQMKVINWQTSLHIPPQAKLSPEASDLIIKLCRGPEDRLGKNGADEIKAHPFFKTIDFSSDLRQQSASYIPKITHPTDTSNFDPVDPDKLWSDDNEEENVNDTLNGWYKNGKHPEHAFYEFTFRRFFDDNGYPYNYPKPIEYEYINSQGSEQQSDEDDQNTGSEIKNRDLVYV
# Assay: RBC HotSpot kinase assay (33P-ATP, P81 filter-binding), LATS1
# Assay type: biochemical
# Measurement Setup: biochemical kinase inhibition; read-out: LATS1 IC50
Quantity: IC50 (nM)
Reply numerically in nM, unit not repeated.

- Molecule: "Cc1cc(-c2ccnc3[nH]cc(C#N)c23)cc(F)c1[C@@]1(O)[C@H](C)CN(C(=O)C(C)(C)N)C[C@@H]1C [Compound 2018]"
  U: "nM"
  IC50: 11.1
- Molecule: "Cc1cc(-c2ccnc3[nH]cc(C#N)c23)cc(F)c1[C@@]1(O)[C@H](C)CN(C(=O)[C@](C)(N)CO)C[C@@H]1C [Compound 2008]"
  U: "nM"
  IC50: 5.2

Please find the next molecule below.
Problem: Give recorded IC50. Cc1cc(-c2ccnc3[nH]cc(C#N)c23)cc(F)c1[C@@]1(O)[C@H](C)CN(C(=O)[C@H](C)N)C[C@@H]1C [Compound 2011]
Solution: 25

###

# Tested Target: UniProt:Q9NRM7
# Sequence (Q9NRM7 whole entry): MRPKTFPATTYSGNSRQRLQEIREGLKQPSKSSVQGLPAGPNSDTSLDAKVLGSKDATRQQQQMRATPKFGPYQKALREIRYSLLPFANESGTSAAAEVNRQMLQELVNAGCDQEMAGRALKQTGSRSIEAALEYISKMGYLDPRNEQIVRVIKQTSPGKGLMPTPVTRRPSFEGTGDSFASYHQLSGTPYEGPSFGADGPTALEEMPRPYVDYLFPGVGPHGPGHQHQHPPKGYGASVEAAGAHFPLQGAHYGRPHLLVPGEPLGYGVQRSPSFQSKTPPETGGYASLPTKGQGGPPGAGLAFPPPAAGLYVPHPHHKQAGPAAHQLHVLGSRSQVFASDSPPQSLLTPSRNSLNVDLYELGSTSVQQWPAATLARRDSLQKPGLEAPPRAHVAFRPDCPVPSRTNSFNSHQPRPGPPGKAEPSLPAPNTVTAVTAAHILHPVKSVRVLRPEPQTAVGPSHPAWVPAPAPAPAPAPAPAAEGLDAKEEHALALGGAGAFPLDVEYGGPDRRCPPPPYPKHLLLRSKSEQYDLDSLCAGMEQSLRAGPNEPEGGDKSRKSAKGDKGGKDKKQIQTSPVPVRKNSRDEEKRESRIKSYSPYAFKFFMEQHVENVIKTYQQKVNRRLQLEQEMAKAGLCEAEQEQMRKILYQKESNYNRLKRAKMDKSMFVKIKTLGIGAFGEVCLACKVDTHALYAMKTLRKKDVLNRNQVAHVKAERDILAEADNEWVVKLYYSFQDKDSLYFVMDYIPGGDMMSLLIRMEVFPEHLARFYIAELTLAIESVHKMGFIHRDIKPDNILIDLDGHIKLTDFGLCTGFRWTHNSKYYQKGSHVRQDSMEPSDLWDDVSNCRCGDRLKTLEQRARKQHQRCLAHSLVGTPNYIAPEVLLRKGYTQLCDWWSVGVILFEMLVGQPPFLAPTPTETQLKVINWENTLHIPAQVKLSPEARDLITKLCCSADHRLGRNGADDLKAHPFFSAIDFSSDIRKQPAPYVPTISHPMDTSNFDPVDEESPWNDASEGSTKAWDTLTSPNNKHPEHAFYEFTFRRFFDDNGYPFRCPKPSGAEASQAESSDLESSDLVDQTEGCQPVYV
# Assay: RBC HotSpot kinase assay (33P-ATP, P81 filter-binding), LATS2
# Type: biochemical
# Measurement Setup: Table 28, biochemical kinase assay; read-out: LATS2 IC50
Hi! Just check whether IC50 is below 10 nM. Below gives condition met, equal or above gives condition not met.

For orientation, consider the following solved cases.
- Compound: "COc1cc(C2CCNCC2)ccc1-c1ccnc2[nH]ccc12 [Compound 179]"
  Label Class: "condition not met"
- Compound: "COCCNc1cc(-c2ccnc3[nH]ccc23)ccc1CN [Compound 231]"
  Label Class: "condition not met"
- Compound: "c1cc(-c2ccc(C3CCCCN3)cc2)c2cc[nH]c2n1 (stereo not drawn) [Compound 271]"
  Label Class: "condition not met"

Problem: Bench note: check whether Cc1cc(-c2ccnc3[nH]cc(F)c23)cc(F)c1[C@@]1(O)[C@H](C)CN(C(=O)[C@@H]2COCCN2)C[C@@H]1C [Compound 68] shows IC50 below 10 nM
Solution: condition met

Problem: Report whether reported IC50 is lower than 10 nM (strictly) for Cc1cc(-c2ccnc3[nH]cc(Cl)c23)cc(F)c1[C@@]1(O)[C@H](C)CN(C2CCS(=O)(=O)CC2)C[C@@H]1C [Compound 307]
Solution: condition met

Problem: For the compound Cc1c[nH]c2nccc(-c3ccc(CN)cc3)c12 [Compound 257] , is IC50 under 10 nM?
Solution: condition not met

Problem: State whether 10 nM exceeds IC50 recorded for COC(=O)c1c[nH]c2nccc(-c3cc(C)c([C@@]4(O)[C@H](C)CN(C5CCS(=O)(=O)CC5)C[C@@H]4C)c(F)c3)c12 [Compound 309] .
Solution: condition met

Problem: Quick check: does COc1cc(-c2ccnc3[nH]cc(F)c23)ncc1[C@@]1(O)[C@H](C)CNC[C@@H]1C [Compound 4] have IC50 under 10 nM?
Solution: condition not met

Problem: IC50 under 10 nM? Item: NCc1ccc(-c2ccnc3[nH]ccc23)c(C(F)(F)F)c1 [Compound 286]
Solution: condition not met

Problem: Could you please tell me whether IC50 recorded for CN(C)C(C)(C)c1ccc(-c2ccnc3[nH]cc(F)c23)cc1 [Compound 208] is less than 10 nM?
Solution: condition not met

Problem: Record Cc1cncc(-c2c[nH]c3nccc(-c4ccc(C5(O)CCNCC5)cc4)c23)c1 [Compound 127] : is its IC50 strictly below 10 nM?
Solution: condition not met

Problem: Is 10 nM strictly greater than the compound's reported IC50? compound: O=C([C@H]1CCCN1)N1CCC(c2ccc(-c3ccnc4[nH]cc(F)c34)cc2Cl)CC1 [Compound 165]
Solution: condition not met

Data origin, for the record: patent US20250361230A1
